test: Cmax in Sprague-Dawley rat at 10 mg/kg, po; format: ADME, organism-based; set-up: dose 10 mg/kg, route oral; conditions: in vivo
ASSAY READOUT: Cmax

// query Please look up its Cmax: CCN(CC)Cc1cc(N(c2cc(C)nc3cc(Cl)ccc23)S(=O)(=O)c2cccc(Cl)c2Cl)ccc1O
// result 616 ng/mL

---

assay: Mean residence time in Sprague-Dawley rat at 10 mg/kg, po; format: ADME, organism-based; design: dose 10 mg/kg, route oral; details: in vivo
ASSAY READOUT: MRT (h)
Give your result in h as a bare value.

// query Please look up its MRT: CCN(CC)Cc1cc(N(c2cc(C)nc3cc(Cl)ccc23)S(=O)(=O)c2cccc(Cl)c2Cl)ccc1O
// result 6.69

---

test: Oral bioavailability in Sprague-Dawley rat at 10 mg/kg; format: ADME, organism-based; conditions: in vivo
ASSAY READOUT: bioavailability
Put your answer as a value accompanied by its unit after it.

// query Please look up its bioavailability: CCN(CC)Cc1cc(N(c2cc(C)nc3cc(Cl)ccc23)S(=O)(=O)c2cccc(Cl)c2Cl)ccc1O
// result 1.72%

---

test: Selectivity index, ratio of CC50 for African green monkey Vero cells to MIC100 for Mycobacterium tuberculosis H37Rv; format: toxicity, cell-based; details: read-out: Selectivity Index
selectivity ratio values for the compounds below.

* CCN(CC)Cc1cc(N(c2cc(C)nc3cc(Cl)ccc23)S(=O)(=O)c2ccc(Cl)cc2)ccc1O | > 48
* CCN(CC)Cc1cc(N(c2cc(C)nc3cc(Cl)ccc23)S(=O)(=O)c2ccc(Cl)cc2Cl)ccc1O | > 48
* CCN(CC)Cc1cc(N(c2cc(C)nc3cc(Cl)ccc23)S(=O)(=O)c2ccc([N+](=O)[O-])cc2)ccc1O | 18

Then this compound:
// query Please look up its selectivity ratio: CCN(CC)Cc1cc(N(c2cc(C)nc3cc(Cl)ccc23)S(=O)(=O)c2cccc(Cl)c2Cl)ccc1O
// result > 96

---

CC50 at 72 h values for the molecules below.
assay: Cytotoxicity against African green monkey Vero cells after 72 hrs yb resazurin assay; type: cell-based; conditions: chlorocebus sabaeus

• CCN(CC)Cc1cc(N(c2cc(C)nc3cc(Cl)ccc23)S(=O)(=O)c2ccc(Cl)cc2)ccc1O = > 300 µg/mL
• CCN(CC)Cc1cc(N(c2cc(C)nc3cc(Cl)ccc23)S(=O)(=O)c2cccc(Cl)c2Cl)ccc1O = > 300 µg/mL
• CCN(CC)Cc1cc(N(c2cc(C)nc3cc(Cl)ccc23)S(=O)(=O)c2ccc(Cl)cc2Cl)ccc1O = > 300 µg/mL

// query Please look up its CC50 at 72 h: CCN(CC)Cc1cc(N(c2cc(C)nc3cc(Cl)ccc23)S(=O)(=O)c2ccc([N+](=O)[O-])cc2)ccc1O
// result 55 µg/mL

---

tested on: Mycobacterium tuberculosis; assay: Bactericidal activity against non-replicating Mycobacterium tuberculosis H37Rv Wayne model under hypoxic/oxygen depleted conditions assessed as log reduction after 4 days by serial dilution assay; type: functional
Calls of active or inactive are those of the source. No cut-off for these calls is given here.
ASSAY READOUT: MIC100

- CCN(CC)Cc1cc(N(c2cc(C)nc3cc(Cl)ccc23)S(=O)(=O)c2cccc(Cl)c2Cl)ccc1O: 3.12 µg/mL
- Cc1ncc([N+](=O)[O-])n1CCO: inactive
- CCN(CC)Cc1cc(N(c2cc(C)nc3cc(Cl)ccc23)S(=O)(=O)c2ccc(Cl)cc2Cl)ccc1O: 3.12 µg/mL
- C(=NC1CCCCC1)=NC1CCCCC1 [DICYCLOHEXYLCARBODIIMIDE]: inactive
